Hey, just so you know, these numbers are from the Bradley open melting point set (2014).

Quick reference for melting point among some compounds
The response must be a number in °C with no trailing unit.

1. COc1ccccc1[N+](=O)[O-] :: 10
2. Cc1ccc(C(C)(C)C)cc1 [1-methyl-4-tert-butylbenzene] :: -53
3. CCOC(=O)/C=C/C(=O)OCC [diethyl_fumarate] :: 2
4. C=CCCCCCCCCC :: -49
5. CC(C)CCCC(C)CCCC(C)CCCCC(C)CCCC(C)CCCC(C)C (stereo unspecified) :: -38

Now examine the next entry.
Form: compound = `CCCCCCCCC(C)=O` ; melting point = 3

* * *

property name: melting point (°C)
Write the number in °C without appending the unit.

1. O=[N+]([O-])c1ccccc1Br :: 43
2. N#CCC(=O)c1ccccc1 :: 81

Reported melting point of `N[C@H](Cc1ccccc1)C(=O)O` : 274

Record `O=C1CCC1` . Reported melting point: -51

The compound identified as `O=C(O)c1cc(C(=O)O)c(C(=O)O)cc1C(=O)O` registered its melting point at 276

Noted for `O=Cc1ccccc1Cl` : its melting point reads 11

* * *

Each entry gets condition not met if its melting point stays under 40 °C, and condition met if its melting point is 40 °C or above.

1. CC1(C(=O)O)CCCCC1 [1-Methylcyclohexanecarboxylic acid] :: condition not met
2. Oc1cccc(O)c1O [pyrogallol] :: condition met
3. O=C(Cl)c1ccccc1 [benzoyl chloride] :: condition not met
4. Cl[C@H]1[C@H](Cl)[C@@H](Cl)[C@H](Cl)[C@H](Cl)[C@H]1Cl [a-hexachlorocyclohexane] :: condition met
5. CC(C)(C)C(N)=S [2,2,2-trimethylthioacetamide] :: condition met

Let us examine a further case.
Task item: Confirm if melting point reported for the compound OCCCCCCCCCCc1ccccc1 [10-Phenyldecan-1-ol] is 40 °C or above.
Reply: condition not met

* * *

property name: melting point (°C)
Write the value in °C as a bare number.

Answered cases to consult:
1) COc1ccc(B(O)O)cc1 [4-methoxybenzeneboronic acid] :: 205
2) COC(=O)c1cc(C)[nH]n1 [1H-pyrazole-3-carboxylic acid, 5-methyl-, methyl ester] :: 107
3) O=C(O)Cc1ccc(O)c(O)c1 [3,4-dihydroxyphenylacetic acid] :: 129
4) C=CC(=O)OCC [ethyl acrylate] :: -71

melting point reported for this compound O=C1c2ccccc2Cc2ccccc21 [Anthracen-9(10H)-one] : 156

* * *

property name: melting point (°C)
Unit °C implied. Number only.

These solved cases illustrate the format of a correct answer.
1. CCOC(=O)/C=C/C(=O)OCC [Diethyl (2E)-but-2-enedioate] :: 1
2. O=C(O)c1c(F)cccc1C(F)(F)F [2-fluoro-6-(trifluoromethyl)benzoic acid] :: 86
3. CC1(O)CCCCC1 [1-methylcyclohexanol] :: 26
4. CN=C=O [Isocyanatomethane] :: -80
5. O=C(C(=O)c1ccccc1)c1ccccc1 [benzil] :: 95

The reported melting point of the compound O=[N+]([O-])c1cccc(O)c1 [3-Nitrophenol] was 97

So, CC1(O)CCCC1 [1-methylcyclopentanol] ? Its melting point was 37

Input Cc1sc2ccccc2c1CC1=NCCN1 [metizoline] . Output melting point: 156

Value of melting point reported for the compound N#Cc1ccncc1 [4-cyanopyridine] is 78

# melting point of CCCCc1ccc(C(=O)Oc2ccc(C#N)cc2)cc1 [4-cyanophenyl 4-n-butylbenzoate] = 68

So, C=CCCC=C [1,5-hexadiene] ? Its melting point was -141

melting point reported for this compound CCn1cc(C(=O)O)c(=O)c2ccc(C)nc21 [Nalidixic Acid] : 230

The recorded melting point for CCCCCCCCCc1ccc(O)cc1 [4-n-nonylphenol] is 45

The value of melting point measured for the compound CCCC(=O)OCC [ethyl butyrate] turned out to be -93

// C[C@]12CC[C@@H]3c4ccc(O)cc4CC[C@H]3[C@@H]1CCC2=O [estrone] : melting point value = 255

The compound identified as COC(=O)c1sc(-c2ccccc2)cc1N [methyl 3-amino-5-phenylthiophene-2-carboxylate] registered its melting point at 147

Entry under test: COc1ccc(NC(=O)N(C)C)cc1Cl [Metoxuron] . Its melting point was 127

`COc1ccccc1-c1ccc(/C=C/C(=O)c2ccco2)o1` yielded melting point of 97

melting point for Oc1cccc(I)c1 [m-iodophenol] is 43

Query OCCOc1ccccc1 [2-phenoxyethanol] yields melting point of 13

Measured melting point of C1CCNC1 [Pyrrolidine] : -60

Lab book: melting point of O=C1c2ccccc2C(C2=CCCCC2)N1Cc1ccccc1 (stereo not drawn) [2-Benzyl-3-cyclohexenylisoindolin-1-one] noted as 110

Lookup result for C[N+](C)(C)C[C@H](O)CC(=O)[O-] [L-Carnitine] ; measured melting point: 196

Record O=C(O)CC(CC(=O)O)c1ccc(Cl)cc1 [3-(4-chlorophenyl)glutaric acid] , field melting point: 166
